- System: Candida albicans
- assay_protocol: In vitro activity (MIC99) against Candida albicans
- Type: cell-based
- condition_label: > 99 % inhibition of growth

# compound, MIC99 C. albicans
rows = [
    ("CC(=O)OC1C(=O)c2c(ccc3oc4ccccc4c23)OC1(C)C (racemic)", "> 280 µg/mL"),
    ("CC(=O)CC1(O)C(=O)c2c(ccc3oc4ccccc4c23)OC1(C)C (racemic)", "150 µg/mL"),
    ("CC1(C)Oc2ccc3oc4ccccc4c3c2[C@@H](O)[C@@H]1O (racemic)", "> 300 µg/mL"),
    ("CC(=O)O[C@@H]1c2c(ccc3oc4ccccc4c23)OC(C)(C)[C@H]1OC(C)=O (racemic)", "> 300 µg/mL"),
]

Where these numbers come from: patent EP1770089A1
